Record form. Attribute: selectivity ratio. Fill in for each entry.
- experimental-details: in vitro
- condition-details: monkey, Vero E6 cells
- Description: Selectivity index, ratio of CC50 for cytotoxicity against African green monkey Vero E6 cells to IC50 for anti-SARS-CoV-2 activity against SARS-CoV-2 NRC-03-nhCoV infected in African green monkey Vero E6 cells
Answers are plain numbers.

# compound, selectivity ratio
rows = [
    ("N=C(N)Nc1ccc(C(=O)Nc2ncnc3[nH]cnc23)cc1", 1),
    ("N#C[C@@]1(c2ccc3c(NC(=O)c4ccc(Nc5ncccn5)cc4)ncnn23)O[C@H](CO)[C@@H](O)[C@H]1O", 2.64),
    ("CCC(CC)COC(=O)[C@H](C)N[P@](=O)(OC[C@H]1O[C@@](C#N)(c2ccc3c(N)ncnn23)[C@H](O)[C@@H]1O)Oc1ccccc1", 3.02),
    ("O=C(Nc1ccn(C2OC(CO)C(O)C2O)c(=O)n1)c1ccc(Nc2ncccn2)cc1 (stereo not given)", 7.18),
]

Param item = CC(C)(C)OC(=O)Nc1ccc(C(=O)Nc2ncnn3c([C@]4(C#N)O[C@H](CO)[C@@H](O)[C@H]4O)ccc23)cc1 ; retrieve measured selectivity ratio.
6.65

All values here come from ChEMBL document CHEMBL5614378.
